target: IL-5RαECD, extracellular domain (ECD) of the human IL-5 receptor α chain, soluble (human, UniProt Q01344 21-342); experiment: scintillation proximity competition assay, dimer against 20 pM [125I] IL-5 on IL-5Rα coated beads
Sequence (Q01344 21-342): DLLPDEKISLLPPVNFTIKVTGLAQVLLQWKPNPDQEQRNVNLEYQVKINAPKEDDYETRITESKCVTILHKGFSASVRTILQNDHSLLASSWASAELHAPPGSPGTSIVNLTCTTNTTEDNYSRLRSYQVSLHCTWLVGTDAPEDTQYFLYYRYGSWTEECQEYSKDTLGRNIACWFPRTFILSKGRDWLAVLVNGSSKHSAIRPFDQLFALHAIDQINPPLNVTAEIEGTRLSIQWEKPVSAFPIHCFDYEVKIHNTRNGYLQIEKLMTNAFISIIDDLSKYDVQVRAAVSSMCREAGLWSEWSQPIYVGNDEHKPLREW
measure: SPA pIC50

1. H-EGYVCVEFARCPTCG-NH2 (disulfide (positions not given here); also: dimer, intramolecular and intermolecular disulfide linkages, places not given here) [dimer of (H)-EGYVCVEFARCPTCG-(NH2)] :: 6.6
2. H-EGYVCVEWARCPTCK-OH (disulfide (positions not given here); also: dimer, intramolecular and intermolecular disulfide linkages, places not given here) [dimer of (H)-EGYVCVEWARCPTCK-(OH)] :: 8.7
3. H-GYVCVEWARCPTCR-OH (disulfide (positions not given here); also: dimer, intramolecular and intermolecular disulfide linkages, places not given here) [dimer of (H)-GYVCVEWARCPTCR-(OH)] :: 8.2
4. H-GYVCVEFARCPTCG-NH2 (disulfide (positions not given here); also: dimer, intramolecular and intermolecular disulfide linkages, places not given here) [dimer of (H)-GYVCVEFARCPTCG-(NH2)] :: 6.1
